Target: T1, human IL-12 (human, UniProt P29460 23-328; P29459 23-219)
T1 construct: Recombinant (Peprotech); FLAG-tagged IL-12 in the flow cytometry assays, biotinylated in the IL-12Rβ2 assay; also called hIL-12
T1 sequence 1: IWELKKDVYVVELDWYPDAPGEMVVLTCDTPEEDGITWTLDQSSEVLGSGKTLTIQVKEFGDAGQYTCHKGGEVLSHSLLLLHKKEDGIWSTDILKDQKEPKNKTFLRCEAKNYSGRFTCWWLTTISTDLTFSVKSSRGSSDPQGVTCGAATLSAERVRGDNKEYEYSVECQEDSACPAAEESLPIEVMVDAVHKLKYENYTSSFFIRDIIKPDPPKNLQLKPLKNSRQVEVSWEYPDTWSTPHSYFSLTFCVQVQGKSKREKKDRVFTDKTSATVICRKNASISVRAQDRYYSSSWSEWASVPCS
T1 sequence 2: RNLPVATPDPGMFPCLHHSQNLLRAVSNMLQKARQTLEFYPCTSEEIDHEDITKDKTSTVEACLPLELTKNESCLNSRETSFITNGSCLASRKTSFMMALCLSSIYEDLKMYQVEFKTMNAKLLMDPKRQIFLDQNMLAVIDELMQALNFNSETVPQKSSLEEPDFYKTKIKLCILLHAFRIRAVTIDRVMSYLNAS
Assay: SPR, single 81 nM analyte, scFv via FLAG
reported-metric: kon (M⁻¹ s⁻¹)
Lab book: enter the figure in M⁻¹ s⁻¹, no units written.

Example binders with recorded kon:
binder	units	kon
scFv combo. # 16 (scFv, scFv-80 with VH F29L; VL S52R; not shown: proprietary C-terminal FLAG tag) scFv: QVQLVQSGAEVKKPGASVKVSCKASGYTLTDYYLHWVRQAPGQGLEWMGWIDPENGDTEYAPKFQGRVTMTTDTSTSTAYMELRSLRSDDTAVYYCNANKELRYFDVWGQGTMVTVSSGGGGSGGGGSGGGGSEIVMTQSPATLSVSPGERATLSCRASQSISINLHWYQQKPGQAPRLLIYFARQSISGIPARFSGSGSGTEFTLTISSLQSEDFAVYYCQQSNSFPLTFGGGTKVEIKR	M⁻¹ s⁻¹	1.5e+06
scFv combo. # 5 (scFv, scFv-80 with VH T28A; VL S63F; not shown: proprietary C-terminal FLAG tag) scFv: QVQLVQSGAEVKKPGASVKVSCKASGYAFTDYYLHWVRQAPGQGLEWMGWIDPENGDTEYAPKFQGRVTMTTDTSTSTAYMELRSLRSDDTAVYYCNANKELRYFDVWGQGTMVTVSSGGGGSGGGGSGGGGSEIVMTQSPATLSVSPGERATLSCRASQSISINLHWYQQKPGQAPRLLIYFASQSISGIPARFFGSGSGTEFTLTISSLQSEDFAVYYCQQSNSFPLTFGGGTKVEIKR	M⁻¹ s⁻¹	1.7e+06
scFv combo. # 15 (scFv, scFv-80 with VH F29L; VL S63F; not shown: proprietary C-terminal FLAG tag) scFv: QVQLVQSGAEVKKPGASVKVSCKASGYTLTDYYLHWVRQAPGQGLEWMGWIDPENGDTEYAPKFQGRVTMTTDTSTSTAYMELRSLRSDDTAVYYCNANKELRYFDVWGQGTMVTVSSGGGGSGGGGSGGGGSEIVMTQSPATLSVSPGERATLSCRASQSISINLHWYQQKPGQAPRLLIYFASQSISGIPARFFGSGSGTEFTLTISSLQSEDFAVYYCQQSNSFPLTFGGGTKVEIKR	M⁻¹ s⁻¹	1.7e+06

We now examine a further binder.
Exam item: Complete the entry with kon for scFv combo. # 4 (scFv, scFv-80 with VH F29L; VL S26P; not shown: proprietary C-terminal FLAG tag) scFv: QVQLVQSGAEVKKPGASVKVSCKASGYTLTDYYLHWVRQAPGQGLEWMGWIDPENGDTEYAPKFQGRVTMTTDTSTSTAYMELRSLRSDDTAVYYCNANKELRYFDVWGQGTMVTVSSGGGGSGGGGSGGGGSEIVMTQSPATLSVSPGERATLSCRAPQSISINLHWYQQKPGQAPRLLIYFASQSISGIPARFSGSGSGTEFTLTISSLQSEDFAVYYCQQSNSFPLTFGGGTKVEIKR
Marked response: 1.8e+06
